Molecular target: human PILRA R78 on cells (human, UniProt Q9UKJ1 20-303)
Sequence (Q9UKJ1 20-303 limits assumed): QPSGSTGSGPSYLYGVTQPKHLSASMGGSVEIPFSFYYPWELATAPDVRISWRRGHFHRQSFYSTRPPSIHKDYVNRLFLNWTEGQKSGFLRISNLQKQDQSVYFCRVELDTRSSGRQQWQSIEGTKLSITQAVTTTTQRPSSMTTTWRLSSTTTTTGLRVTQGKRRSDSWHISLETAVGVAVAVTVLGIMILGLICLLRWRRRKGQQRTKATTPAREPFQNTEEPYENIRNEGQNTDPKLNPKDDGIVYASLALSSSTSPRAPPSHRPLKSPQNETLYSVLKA
Experiment: cell-based or functional assay
measure-name: pSTAT3 S727 induction, EC50 (nM)
Expressed in nM, but write only the number.

What pSTAT3 S727 induction, EC50 (nM) value was documented for this binder, Anti-PILRA antibody clone 35 (antibody, V domains shown, Humanized; also called Ab.35) VH: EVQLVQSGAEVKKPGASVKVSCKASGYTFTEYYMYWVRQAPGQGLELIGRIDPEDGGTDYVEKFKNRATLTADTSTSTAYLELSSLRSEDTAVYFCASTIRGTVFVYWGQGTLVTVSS VL: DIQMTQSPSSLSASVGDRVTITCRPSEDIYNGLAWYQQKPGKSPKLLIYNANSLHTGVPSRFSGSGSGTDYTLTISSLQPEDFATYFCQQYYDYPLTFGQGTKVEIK ?
10.6

Continue with Anti-PILRA antibody clone 23 (antibody, V domains shown, Humanized; also called Ab.23) VH: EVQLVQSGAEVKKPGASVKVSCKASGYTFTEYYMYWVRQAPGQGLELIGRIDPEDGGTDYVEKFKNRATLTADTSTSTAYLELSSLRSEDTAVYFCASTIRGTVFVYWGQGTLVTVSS VL: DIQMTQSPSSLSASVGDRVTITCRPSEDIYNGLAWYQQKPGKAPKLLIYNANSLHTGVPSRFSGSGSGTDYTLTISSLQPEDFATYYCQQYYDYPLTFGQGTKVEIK
14.6

Continue with Anti-PILRA antibody clone 15 (antibody, V domains shown, Humanized; also called Ab.15) VH: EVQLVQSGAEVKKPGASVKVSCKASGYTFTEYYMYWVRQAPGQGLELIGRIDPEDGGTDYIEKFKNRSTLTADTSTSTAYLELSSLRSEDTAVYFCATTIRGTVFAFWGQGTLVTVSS VL: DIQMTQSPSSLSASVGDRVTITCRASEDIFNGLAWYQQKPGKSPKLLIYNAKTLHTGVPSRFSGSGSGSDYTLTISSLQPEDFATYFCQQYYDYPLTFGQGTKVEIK
12.7

Continue with Anti-PILRA antibody clone 6 (antibody, V domains shown, the printed lines of the VL are out of order there) VH: EVQLQQSGPELQRPGASVKLSCKASGYTFTEYYMYWVKQRPKQGLELIGRIDPEDGGTDYIEKFKNKATLTADTSSNTAYMQLSSLTSEDTATYFCATTIRGTVFAFWGQGTLVTVSS VL: DIQMTQSPASLSASLGETVTIECRASEDIFNGLAWYQQKPGKSPHLLIYNAKTLHTGVPSRFSGSGSGSQYSLKINSLQSEDVASYFCQQYYDYPLTFGSGTKLEIK
7.13

Continue with Anti-PILRA antibody clone 7 (antibody, V domains shown) VH: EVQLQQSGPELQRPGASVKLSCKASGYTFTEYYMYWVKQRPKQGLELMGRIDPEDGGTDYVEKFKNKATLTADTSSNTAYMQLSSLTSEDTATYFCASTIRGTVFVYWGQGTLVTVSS VL: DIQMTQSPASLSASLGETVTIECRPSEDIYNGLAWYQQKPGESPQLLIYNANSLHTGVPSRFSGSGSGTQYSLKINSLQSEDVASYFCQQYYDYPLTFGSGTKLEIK
10.7

Continue with Anti-PILRA antibody clone 12 (antibody, V domains shown, Humanized; also called Ab.12) VH: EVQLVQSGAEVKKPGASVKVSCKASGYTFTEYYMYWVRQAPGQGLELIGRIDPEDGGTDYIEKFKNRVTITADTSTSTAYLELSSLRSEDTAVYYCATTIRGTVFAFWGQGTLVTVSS VL: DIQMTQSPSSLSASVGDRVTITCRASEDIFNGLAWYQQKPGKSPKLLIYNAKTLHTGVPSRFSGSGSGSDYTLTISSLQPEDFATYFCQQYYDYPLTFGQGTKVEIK
7.41

# credit: patent US20260109763A1
